# TARGET_OF_ASSAY: ALK (Homo sapiens)
# Construct: host or cells: baculovirus expression system
# Sequence (Q9UM73 19-1620): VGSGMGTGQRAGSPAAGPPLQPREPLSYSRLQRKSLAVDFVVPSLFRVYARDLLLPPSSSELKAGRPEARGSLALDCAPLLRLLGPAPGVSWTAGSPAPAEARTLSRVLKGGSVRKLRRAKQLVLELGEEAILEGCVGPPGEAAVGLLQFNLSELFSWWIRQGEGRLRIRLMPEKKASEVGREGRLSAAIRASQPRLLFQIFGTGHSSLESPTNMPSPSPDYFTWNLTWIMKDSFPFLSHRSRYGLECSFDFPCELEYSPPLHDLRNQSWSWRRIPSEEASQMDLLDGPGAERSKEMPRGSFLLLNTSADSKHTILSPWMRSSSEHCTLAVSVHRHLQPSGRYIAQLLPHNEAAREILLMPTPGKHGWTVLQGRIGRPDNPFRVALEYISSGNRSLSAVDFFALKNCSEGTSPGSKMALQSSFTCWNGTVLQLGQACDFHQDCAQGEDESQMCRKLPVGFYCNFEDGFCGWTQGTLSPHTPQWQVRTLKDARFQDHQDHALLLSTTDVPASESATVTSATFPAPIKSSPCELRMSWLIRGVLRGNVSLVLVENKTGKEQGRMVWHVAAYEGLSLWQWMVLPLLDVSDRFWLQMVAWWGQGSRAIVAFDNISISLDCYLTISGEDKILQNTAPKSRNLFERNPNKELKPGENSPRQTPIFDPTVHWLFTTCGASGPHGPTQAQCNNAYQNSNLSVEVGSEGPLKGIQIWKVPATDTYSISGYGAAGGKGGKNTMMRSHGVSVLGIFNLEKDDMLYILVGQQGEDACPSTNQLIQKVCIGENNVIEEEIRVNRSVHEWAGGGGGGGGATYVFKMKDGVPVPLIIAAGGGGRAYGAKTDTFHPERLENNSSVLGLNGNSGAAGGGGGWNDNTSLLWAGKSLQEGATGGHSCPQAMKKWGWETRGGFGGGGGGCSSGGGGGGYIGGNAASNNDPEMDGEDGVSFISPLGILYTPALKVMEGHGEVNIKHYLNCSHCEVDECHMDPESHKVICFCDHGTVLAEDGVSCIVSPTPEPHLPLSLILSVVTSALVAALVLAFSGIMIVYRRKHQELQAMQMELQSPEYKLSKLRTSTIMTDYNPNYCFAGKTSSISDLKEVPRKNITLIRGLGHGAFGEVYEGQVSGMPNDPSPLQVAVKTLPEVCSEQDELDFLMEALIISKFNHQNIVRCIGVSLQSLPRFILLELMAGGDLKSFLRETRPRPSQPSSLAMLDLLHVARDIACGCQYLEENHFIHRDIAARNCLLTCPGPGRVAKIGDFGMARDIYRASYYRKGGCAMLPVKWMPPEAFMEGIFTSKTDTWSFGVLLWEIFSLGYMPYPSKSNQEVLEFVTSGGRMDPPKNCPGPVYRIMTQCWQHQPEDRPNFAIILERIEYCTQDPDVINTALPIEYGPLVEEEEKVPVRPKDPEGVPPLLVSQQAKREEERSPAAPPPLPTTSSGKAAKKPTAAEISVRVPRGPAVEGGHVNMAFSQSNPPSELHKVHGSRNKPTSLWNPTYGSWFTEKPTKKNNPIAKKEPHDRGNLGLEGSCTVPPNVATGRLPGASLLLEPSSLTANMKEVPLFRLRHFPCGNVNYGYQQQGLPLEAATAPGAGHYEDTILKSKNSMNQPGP
# ASSAY_EXPLANATION: ALK Kinase Assay (ELISA/TRF, PLC-γ substrate)
# Type: biochemical
# RUN_PARAMETERS: ALK kinase inhibition, 1 μM ATP; read-out: ALK Potency
pIC50: −log10 of the molar value.
# Lookup of reported pIC50 keyed by entry

Use these answered entries as a reference point.
>>> print(df.to_string())
                                   molecule     target_of_assay  observable  reported_result
0  CN1CCOCc2cc(Nc3ncc4ccc(-c5cccc(NS(C)(=O)=O)c5)n4n3)ccc21  ALK (Homo sapiens)       pIC50     6.00 to 7.00
1  COc1ccccc1-c1ccc2cnc(Nc3ccc4nc(C(C)(C)C)[nH]c4c3)nn12  ALK (Homo sapiens)       pIC50     6.00 to 7.00
2  COc1cc(CN2CCN(C[C@H](C)O)CC2)ccc1Nc1ncc2ccc(-c3ccccc3N(C)S(C)(=O)=O)n2n1  ALK (Homo sapiens)       pIC50           > 7.00
3  COc1cc(N2CCC[C@@H](CN3CCN(C)CC3)C2)ccc1Nc1ncc2ccc(-c3ccccc3OC)n2n1  ALK (Homo sapiens)       pIC50           > 7.00
4  Cn1cnc2ccc(Nc3ncc4ccc(-c5cccc(S(=O)(=O)NC(C)(C)C)c5)n4n3)cc21  ALK (Homo sapiens)       pIC50     6.00 to 7.00

Data request: For CC(C)(C)NS(=O)(=O)c1cccc(-c2ccc3cnc(Nc4ccc(C5CCN(CC(N)=O)CC5)cc4)nn23)c1 , what is its reported pIC50?
Data returned: 6.00 to 7.00

Data request: For CN1CCC(c2ccc(Nc3ncc4ccc(-c5cccc(S(=O)(=O)N6CCCCC6)c5)n4n3)cc2)CC1 , what is its reported pIC50?
Data returned: 6.00 to 7.00

Data request: For COc1ccc(-c2ccc3cnc(Nc4ccc(N5CCC(CO)CC5)cc4)nn23)cn1 , what is its reported pIC50?
Data returned: 6.00 to 7.00

Data request: For CC(C)(C)OC(=O)N1CCC=C(c2ccc3cnc(Nc4ccc(C5CCN(CC(N)=O)CC5)cc4)nn23)C1 , what is its reported pIC50?
Data returned: 5.00 to 6.00

Data request: For COc1ccc(-c2ccc3cnc(Nc4ccc(C5CC6CCC(C5)N6C)cc4)nn23)cn1 (stereo not shown) , what is its reported pIC50?
Data returned: 6.00 to 7.00

Data request: For COc1ccccc1-c1ccc2cnc(Nc3cccc(OC4CCNCC4)c3)nn12 , what is its reported pIC50?
Data returned: 6.00 to 7.00
